- ASSAY_COMMENT: amyloid nucleation score (Sup35N fusion, yeast selection) (log enrichment); library NNK2; higher = more nucleation; inactive = no reads after selection;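 note: zero at mode of non-aggregating sequences after 7 days selection at 30°C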
Give yes (1) when the value for amyloid nucleation score is at least -0.2. Give no (0) when it is less.

>>> assigned_label("KDTRVVYVPSFYLWNLDAVK")
"no (0)"
>>> assigned_label("VRIYTHWTRSYRPKFRSTWT")
"yes (1)"
>>> assigned_label("SKNVFKMGLDTSH")
"no (0)"
>>> assigned_label("NRVLSFPRWGAIYVYTMTEF")
"no (0)"
>>> assigned_label("SLPPLMWGAMMRRRRRGSST")
"yes (1)"
>>> assigned_label("RTFVVNQVEWDVYIWRSGSV")
"yes (1)"
>>> assigned_label("YGYCIISHTLNLLLGQYLCY")
"yes (1)"
>>> assigned_label("NYEGNGRVVITLLLGSNWYR")
"yes (1)"
>>> assigned_label("EYSRVLTGVFLIQSYCKFGN")
"no (0)"
>>> assigned_label("RISNVWENTFTLSAGSWGVR")
"yes (1)"
>>> assigned_label("FTVDCLVVIFVYIEPMNWMG")
"yes (1)"

====

We begin with a simple list: items and their reported amyloid nucleation score.
- ASSAY_COMMENT: amyloid nucleation score (Sup35N fusion, yeast selection) (log enrichment); library NNK1; higher = more nucleation; inactive = no reads after selection
REPORTED_METRIC: amyloid nucleation score

>>> reported_value("RYNMPFYRDRRFCFFEKGLG")
-0.077
>>> reported_value("NSWRRE")
1.02
>>> reported_value("LMMQRERPFRLYL")
-1.34
>>> reported_value("STIMMF")
0.289
>>> reported_value("LRNDLVETSVLGA")
1.47
>>> reported_value("KNDYSYWL")
-0.275
>>> reported_value("RLCWQDIGTLFVSWPRMIFV")
0.071
>>> reported_value("TSGSRVRRRWGMLVCRNRSR")
-1.25
>>> reported_value("NKKKSLRWKGTGNGVPLVVQ")
-0.399

====

- ASSAY_COMMENT: amyloid nucleation score (Sup35N fusion, yeast selection) (log enrichment); library NNK2; higher = more nucleation; inactive = no reads after selection
REPORTED_METRIC: amyloid nucleation score

>>> reported_value("VNWFRLWRTSQLLGRMMLCL")
0.427
>>> reported_value("KFRMDGGFILNVVHKQHNMV")
0.023
>>> reported_value("NILLMYFSLK")
5.74
>>> reported_value("SIAGVIMVDSSSLSM")
-1.01
>>> reported_value("YSHGEVCCWSCVMWVKHFMR")
1.47
>>> reported_value("DLLQREIDRSIVRLWIMEKG")
0.252
>>> reported_value("HGRRQGFAVTVGN")
0.355
>>> reported_value("GSGGWLAGHKTVK")
0.174
>>> reported_value("WWFLKLDGRLPKLWAFLTMG")
-0.22
>>> reported_value("VSAELWIQSSVTSAYIIWQL")
0.98
>>> reported_value("WCFCSLLCVSGCLRPDPELP")
1.28
>>> reported_value("PFYTYSKYKCTKFTDNYYAQ")
-1.02
>>> reported_value("RVYPFGRTRIFKTM")
1.33
>>> reported_value("TESIFCSYSWVCVGVMSNYD")
5.1
>>> reported_value("KVGERISPELSGMFYGTLWY")
-0.305
>>> reported_value("TAAPSEVMPIMALRPPKESS")
-0.541
>>> reported_value("LSPVVRSMKDVLQCESVDDR")
0.191

====

- ASSAY_COMMENT: amyloid nucleation score (Sup35N fusion, yeast selection) (log enrichment); library NNK2; higher = more nucleation; inactive = no reads after selection
REPORTED_METRIC: amyloid nucleation score

>>> reported_value("LVWPTYVGDQAGSCVPGVFP")
4.51
>>> reported_value("KRSCDQVCLLSRLIGQAGEW")
2.26
>>> reported_value("AYLTTREAVGLFNKACLASY")
0.439
>>> reported_value("NGFHCG")
"inactive"
>>> reported_value("NCEPELLAVLSRCFSSIWVS")
-1.27
>>> reported_value("VFEYFRCPYIHNLLFFSAWL")
1.9
>>> reported_value("APRGLTFVQQSVSSIHLTAK")
0.345
>>> reported_value("PMDEWHSFPLQNKLRVIGCG")
0.115
>>> reported_value("FFGICDVYSDMNFPIYTAY")
"inactive"

====

- ASSAY_COMMENT: amyloid nucleation score (Sup35N fusion, yeast selection) (log enrichment); library NNK2; higher = more nucleation; inactive = no reads after selection
Measured amyloid nucleation score determines class: class 1 (below 0.08), class 2 (0.08 to below 1), class 3 (1 or more)

>>> assigned_label("PYMPGRMWSRILSVCSVCCV")
"class 3"
>>> assigned_label("ICYKVLAMDLMLCMSGGVLV")
"class 3"
>>> assigned_label("SQKNCCKVEGRLMASRVKPR")
"class 2"
>>> assigned_label("FLFTQGRLGGGYIVEYLCQL")
"class 3"
>>> assigned_label("HLRYGGFAV")
"class 2"
>>> assigned_label("RCWAAHYVDTWACNSLAVII")
"class 3"
>>> assigned_label("SYWIADTNRSGNRRLSCGRC")
"class 2"
>>> assigned_label("SSAYQMSEY")
"class 1"
>>> assigned_label("LEAISCKWYTLYVVYSCNSW")
"class 1"
>>> assigned_label("LFSALFGRW")
"class 3"
>>> assigned_label("NDRILPYSNLWHWERLV")
"class 1"
>>> assigned_label("RFFADLTMDQFNIFGGLWQG")
"class 3"
>>> assigned_label("LSCCSLIPTHPRPRDNVNEC")
"class 2"
>>> assigned_label("SFYDARYFQCDVFAVVRIRR")
"class 2"
>>> assigned_label("MFRVARFSKAYDCTHFVING")
"class 2"
>>> assigned_label("CKPRNLLLLSPKPIVLCKDF")
"class 1"
>>> assigned_label("MFVLFWVVNSTDLCGTAPLV")
"class 2"
>>> assigned_label("LSLYFFDL")
"class 3"
>>> assigned_label("MKKWWPVICFGWSQVSFRVE")
"class 3"
>>> assigned_label("FRTQAF")
"class 3"
>>> assigned_label("KGSEPLYGLCIIMV")
"class 2"
>>> assigned_label("LALKGLLFSHNGKLEKGQV")
"class 1"
>>> assigned_label("MVSFGSGGELFFMHTQFSAR")
"class 1"
>>> assigned_label("IRRFRGLTSRSTRCSKGSKG")
"class 1"
>>> assigned_label("CCIRQCNMRIKADDQRRDVI")
"class 2"
>>> assigned_label("GSYTHARINSVIFNRYTLCS")
"class 2"
>>> assigned_label("VLVSGYDLVVVDRVYLGRMF")
"class 3"
>>> assigned_label("FSRSVKRLIVDVLRNKVCI")
"class 2"
>>> assigned_label("RSVLWSSMVGV")
"class 3"
>>> assigned_label("PIFYSPLAFMLRMYHNG")
"class 1"
>>> assigned_label("FCKFMSCESRPCNIMKCWGV")
"class 2"
>>> assigned_label("FFFFTNRVTKAVSYGYLMDD")
"class 1"
>>> assigned_label("VVVPDGFRNYEYGNSTLFVI")
"class 1"
>>> assigned_label("QGHISHTGLIPMLGGSL")
"class 3"
>>> assigned_label("SILLLIKVYFWGLCNPMILA")
"class 1"
>>> assigned_label("MKKFLGWRYELNCWVLYNSG")
"class 1"
>>> assigned_label("HLHPGVYLKPFDGCGIINGI")
"class 2"
>>> assigned_label("MKGACLRGYEVLSMGQSTSY")
"class 2"
>>> assigned_label("SHQLICFSWRLDFYHRGLLQ")
"class 3"
>>> assigned_label("GDFLWNLWVYHNY")
"class 3"
>>> assigned_label("SPMTDLVRMRGRME")
"class 1"
>>> assigned_label("GSSGLCIRSSLIYFVCQTVW")
"class 3"
>>> assigned_label("LRGRRRTVLPANGWCSLTAL")
"class 2"
>>> assigned_label("RVCPVSG")
"class 1"
>>> assigned_label("CSQIRFGRADRLNETSIKLV")
"class 2"
>>> assigned_label("CASNQCTGP")
"class 3"
>>> assigned_label("VEFVVPKI")
"class 1"
>>> assigned_label("MLKQSGDSVAHCLGKTGSQM")
"class 2"
>>> assigned_label("DFPQCKNTETLL")
"class 2"
>>> assigned_label("HHIRSFVETGGDTWWGRCSR")
"class 3"
>>> assigned_label("ATYNCVHRWGIFTSAYGSKC")
"class 1"
>>> assigned_label("TLEKSFPLEFVV")
"class 2"
>>> assigned_label("REKVVKEPRTDESFVGRGGS")
"class 2"
>>> assigned_label("SHIPIWRKLSVQFSVKIVLE")
"class 1"
>>> assigned_label("SYFDMWIGW")
"class 3"
>>> assigned_label("QNYARL")
"class 1"
>>> assigned_label("LNTIFTKIIGFSA")
"class 1"
>>> assigned_label("FLVNVFM")
"class 3"
>>> assigned_label("LPMLRHTYNCFSVACIGIFC")
"class 1"
>>> assigned_label("VTCASWYYGKISGLYACYRL")
"class 2"
